Values compiled from ChEMBL document CHEMBL5325425.

- RUN DESCRIPTION: MRT in fasted Sprague-Dawley rat at 2 mg/kg, iv measured upto 12 hrs by LC-MS/MS analysis
- Format: ADME, organism-based
- CONDITION CONTEXT: in vivo
A collection of compounds and their measured MRT
RECORDED METRIC: MRT (h)

| SMILES STR | MEASUREMENT UNIT | RECORDED NUMBER |
| --- | --- | --- |
| Cc1cc(C)n(-c2nc(Nc3cccc(Br)c3)c3ccn(C)c3n2)n1 | h | 1.5 |
| Cc1ccn(-c2nc(Nc3ccc(F)cc3)c3ccn(C)c3n2)n1 | h | 1.51 |
